Reported pIC50 is given for each of the following compounds.
system: A549; assay: Cytotoxicity against human A549 cells after 72 hrs by SRB assay; assay type: functional, cell-based; conditions: A549, 72 h
pIC50: −log10 of the molar value.

compound | pIC50
CCC1=C[C@@H]2CN(C1)Cc1c([nH]c3ccccc13)[C@@](C(=O)OC)(c1cc3c(cc1OC)N(C)[C@H]1[C@@](O)(C(=O)OC)[C@H](OC(C)=O)[C@]4(CC)C=CCN5CC[C@]31[C@@H]54)C2 [VINORELBINE] | 7.31
CCC1=C[C@@H]2CN(CCc3c([nH]c4ccccc34)[C@@](C(=O)OC)(c3cc4c(cc3OC)N(C)[C@H]3[C@](O)(CNC(=O)OC)[C@H](OC(C)=O)[C@]5(CC)C=CCN6CC[C@]43[C@@H]65)C2)C1 | 7.42
CCCCCOC(=O)NC[C@]1(O)[C@H](OC(C)=O)[C@]2(CC)C=CCN3CC[C@@]4(c5cc([C@@]6(C(=O)OC)C[C@@H]7C=C(CC)CN(CCc8c6[nH]c6ccccc86)C7)c(OC)cc5N(C)[C@@H]14)[C@@H]32 | 6.37
CCC1=C[C@@H]2CN(CCc3c([nH]c4ccccc34)[C@@](C(=O)OC)(c3cc4c(cc3OC)N(C)[C@H]3[C@](O)(CNC(=O)Oc5ccccc5OC)[C@H](OC(C)=O)[C@]5(CC)C=CCN6CC[C@]43[C@@H]65)C2)C1 | 6.22
CCC1=C[C@@H]2CN(CCc3c([nH]c4ccccc34)[C@@](C(=O)OC)(c3cc4c(cc3OC)N(C)[C@H]3[C@](O)(CNC(=O)Oc5ccccc5)[C@H](OC(C)=O)[C@]5(CC)C=CCN6CC[C@]43[C@@H]65)C2)C1 | 6.96
CCC1=C[C@@H]2CN(CCc3c([nH]c4ccccc34)[C@@](C(=O)OC)(c3cc4c(cc3OC)N(C)[C@H]3[C@](O)(CNC(=O)OCC5CC5)[C@H](OC(C)=O)[C@]5(CC)C=CCN6CC[C@]43[C@@H]65)C2)C1 | 7.21
CCOC(=O)NC[C@]1(O)[C@H](OC(C)=O)[C@]2(CC)C=CCN3CC[C@@]4(c5cc([C@@]6(C(=O)OC)C[C@@H]7C=C(CC)CN(CCc8c6[nH]c6ccccc86)C7)c(OC)cc5N(C)[C@@H]14)[C@@H]32 | 7.29
CCC1=C[C@@H]2CN(CCc3c([nH]c4ccccc34)[C@@](C(=O)OC)(c3cc4c(cc3OC)N(C)[C@H]3[C@](O)(CNC(=O)OCCBr)[C@H](OC(C)=O)[C@]5(CC)C=CCN6CC[C@]43[C@@H]65)C2)C1 | 6.88
CCC1=C[C@@H]2CN(CCc3c([nH]c4ccccc34)[C@@](C(=O)OC)(c3cc4c(cc3OC)N(C)[C@H]3[C@](O)(CNC(=O)OCc5ccc6c(c5)OCO6)[C@H](OC(C)=O)[C@]5(CC)C=CCN6CC[C@]43[C@@H]65)C2)C1 | 7.12
